Ki values for the molecules below.
- Tested On: human glucocorticoid receptor (Homo sapiens)
- Construct: purified human recombinant full-length glucocorticoid receptor (2 nM); purchased Invitrogen Part #2893
- Sequence (P04150 1-777): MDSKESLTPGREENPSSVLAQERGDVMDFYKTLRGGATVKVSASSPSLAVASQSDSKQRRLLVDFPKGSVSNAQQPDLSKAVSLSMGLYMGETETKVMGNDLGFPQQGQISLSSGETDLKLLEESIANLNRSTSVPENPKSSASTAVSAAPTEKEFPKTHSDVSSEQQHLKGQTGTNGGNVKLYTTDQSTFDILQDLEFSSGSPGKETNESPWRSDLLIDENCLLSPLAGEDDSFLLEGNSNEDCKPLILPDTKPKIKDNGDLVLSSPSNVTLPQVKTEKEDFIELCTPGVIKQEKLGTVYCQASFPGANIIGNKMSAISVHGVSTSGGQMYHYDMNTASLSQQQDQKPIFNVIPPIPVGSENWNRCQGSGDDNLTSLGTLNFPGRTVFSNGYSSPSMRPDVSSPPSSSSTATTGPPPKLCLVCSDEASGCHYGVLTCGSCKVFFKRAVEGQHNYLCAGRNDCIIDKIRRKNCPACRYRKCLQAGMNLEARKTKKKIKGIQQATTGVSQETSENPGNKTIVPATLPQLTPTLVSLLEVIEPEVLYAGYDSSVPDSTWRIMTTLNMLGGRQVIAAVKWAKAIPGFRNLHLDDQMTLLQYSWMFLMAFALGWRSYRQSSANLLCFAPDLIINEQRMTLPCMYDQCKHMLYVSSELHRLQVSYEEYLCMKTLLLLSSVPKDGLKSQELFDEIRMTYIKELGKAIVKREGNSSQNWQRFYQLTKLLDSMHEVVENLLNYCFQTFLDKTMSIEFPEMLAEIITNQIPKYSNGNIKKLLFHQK
- Assay: Glucocorticoid Receptor Binding Assay (I), fluorescence polarization competitor kit
- Run Parameters: purified human recombinant full-length GR, Fluormone GS Red, 2 h room temperature
Write the answer as a number in nM, unit excluded.

Observe how each entry below is paired with its result.
C=CC[C@H](O)[C@H]1CCCC2=Cc3c(-c4ccccc4)ncn3C[C@@]21C (racemic): 26.9
C[C@]12Cn3cnc(-c4ccccc4)c3C=C1CCC[C@@H]2[C@](O)(c1csc2ccccc12)C(F)(F)F (racemic): 111
C[C@]12Cn3cnc(-c4ccccc4)c3C=C1CCC[C@@H]2[C@@H](O)C1CCCCC1 (racemic): 20.2
C[C@]12Cn3cnc(-c4ccc(F)cc4)c3C=C1CCC[C@@H]2[C@]1(C)OC(=O)c2ccccc21: 177
C[C@H](O)[C@H]1CCCC2=Cc3c(-c4ccccc4)ncn3C[C@@]21C (racemic): 364
CC(C)(C)OC(=O)NCC[C@H]1CCCC2=Cc3c(-c4ccc(F)cc4)ncn3C[C@@]21C: 11.4

query: Field request: Ki | item: C[C@]12Cn3cnc(-c4ccc(F)cc4)c3C=C1CCC[C@@H]2[C@@H](O)c1ccc(F)cc1
result: 35.3

query: Same read-out for C=CC1(O)CCCC2=Cc3c(-c4ccc(F)cc4)ncn3CC21C (stereo not drawn) ?
result: 755

query: Same read-out for CC12Cn3cnc(-c4ccc(F)cc4)c3C=C1CCCC2(O)CCc1ccccc1 (racemic) ?
result: 19.7

query: Same read-out for C[C@]12Cn3cnc(-c4ccc(F)cc4)c3C=C1CCC[C@@H]2[C@@H](O)C(F)(F)F ?
result: 103

query: Same read-out for C[C@]12Cn3cnc(-c4ccccc4)c3C=C1CCC[C@@H]2[C@@H](O)c1ccccc1 (single isomer, unassigned) [Example 14] ?
result: 65

query: Same read-out for C[C@]12Cn3cnc(-c4ccc(F)cc4)c3C=C1CCC[C@@H]2[C@](C)(O)c1cccc(S(C)(=O)=O)c1 ?
result: 2.12

----------
- Tested On: human glucocorticoid receptor (Homo sapiens, UniProt P04150)
- Construct: purified human recombinant full-length glucocorticoid receptor (2 nM); purchased Invitrogen Part #2893
- Assay: Glucocorticoid Receptor Binding Assay (I), fluorescence polarization competitor kit
- Run Parameters: purified human recombinant full-length GR, Fluormone GS Red, 2 h room temperature
Ki values for the compounds below.
Write the answer as a number in nM, unit excluded.

Observe how each entry below is paired with its result.
C=CC[C@@H](O)[C@H]1CCCC2=Cc3c(-c4ccc(F)cc4)ncn3C[C@@]21C: 8.67
COc1ccc([C@H](O)[C@H]2CCCC3=Cc4c(-c5ccccc5)ncn4C[C@@]32C)cc1 (racemic): 90.1

Now examine the next entry.
query: Field request: Ki | item: C[C@]12Cn3cnc(-c4ccc(F)cc4)c3C=C1CCC[C@@H]2C(=O)C1CCOCC1
result: 344

----------
- Tested On: human glucocorticoid receptor (Homo sapiens, UniProt P04150)
- Construct: purified human recombinant full-length glucocorticoid receptor (2 nM); purchased Invitrogen Part #2893
- Assay: Glucocorticoid Receptor Binding Assay (I), fluorescence polarization competitor kit
- Run Parameters: purified human recombinant full-length GR, Fluormone GS Red, 2 h room temperature
Ki values for the compounds below.
Write the answer as a number in nM, unit excluded.

Cc1cccc(C)c1C(=O)[C@H]1CCCC2=Cc3c(-c4ccc(F)cc4)ncn3C[C@@]21C: 207
C[C@]12Cn3cnc(-c4ccccc4)c3C=C1CCC[C@@H]2[C@H](O)c1csc2ccccc12 (single isomer, unassigned): 493
COc1cccc([C@H](O)[C@H]2CCCC3=Cc4c(-c5ccccc5)ncn4C[C@@]32C)c1 (racemic): 94.4
C[C@]12Cn3cnc(-c4ccc(F)cc4)c3C=C1CCC[C@@H]2C(=O)c1ccc(F)cc1: 878
C[C@]12Cn3cnc(-c4ccccc4)c3C=C1CCC[C@@H]2[C@@H](O)c1csc2ccccc12 (single isomer, unassigned): 22.5

Now examine the next entry.
query: Form entry - test system: human glucocorticoid receptor (Homo sapiens, UniProt P04150); read-out: Ki; compound: C[C@]12Cn3cnc(-c4ccc(F)cc4)c3C=C1CCC[C@@H]2[C@](C)(O)c1csc2ccccc12 (single isomer, unassigned) [Example 45]
result: 73.2

----------
- Tested On: human glucocorticoid receptor (Homo sapiens, UniProt P04150)
- Construct: purified human recombinant full-length glucocorticoid receptor (2 nM); purchased Invitrogen Part #2893
- Assay: Glucocorticoid Receptor Binding Assay (I), fluorescence polarization competitor kit
- Run Parameters: purified human recombinant full-length GR, Fluormone GS Red, 2 h room temperature
Readout Label: Ki

Observe how each entry below is paired with its result.
C[C@]12Cn3cnc(-c4ccc(F)cc4)c3C=C1CCC[C@@H]2CC(=O)Nc1nccs1 [Example 86]: 67.1 nM
C=CC[C@@H](O)[C@H]1CCCC2=Cc3c(-c4ccccc4)ncn3C[C@@]21C (racemic) [Example 19]: 22.3 nM
C[C@]12Cn3cnc(-c4ccc(F)cc4)c3C=C1CCC[C@@H]2CC(=O)Nc1nncs1 [Example 6]: 7.13 nM
C=CC[C@H](O)[C@H]1CCCC2=Cc3c(-c4ccc(F)cc4)ncn3C[C@@]21C [Example 51]: 7.38 nM
C[C@]12Cn3cnc(-c4ccc(F)cc4)c3C=C1CCC[C@@H]2[C@](C)(O)c1ccc(C#N)cc1 [Example 79]: 3.42 nM
CC(C)(O)c1ccc([C@@](C)(O)[C@H]2CCCC3=Cc4c(-c5ccc(F)cc5)ncn4C[C@@]32C)cc1 [Example 98]: 4.45 nM

Now examine the next entry.
query: Field request: Ki | item: C[C@]12Cn3cnc(-c4ccccc4)c3C=C1CCC[C@@H]2C(=O)c1csc2ccccc12 (racemic) [Example 34]
result: > 1150 nM

----------
- Tested On: human glucocorticoid receptor (Homo sapiens)
- Construct: purified human recombinant full-length glucocorticoid receptor (2 nM); purchased Invitrogen Part #2893
- Sequence (P04150 1-777): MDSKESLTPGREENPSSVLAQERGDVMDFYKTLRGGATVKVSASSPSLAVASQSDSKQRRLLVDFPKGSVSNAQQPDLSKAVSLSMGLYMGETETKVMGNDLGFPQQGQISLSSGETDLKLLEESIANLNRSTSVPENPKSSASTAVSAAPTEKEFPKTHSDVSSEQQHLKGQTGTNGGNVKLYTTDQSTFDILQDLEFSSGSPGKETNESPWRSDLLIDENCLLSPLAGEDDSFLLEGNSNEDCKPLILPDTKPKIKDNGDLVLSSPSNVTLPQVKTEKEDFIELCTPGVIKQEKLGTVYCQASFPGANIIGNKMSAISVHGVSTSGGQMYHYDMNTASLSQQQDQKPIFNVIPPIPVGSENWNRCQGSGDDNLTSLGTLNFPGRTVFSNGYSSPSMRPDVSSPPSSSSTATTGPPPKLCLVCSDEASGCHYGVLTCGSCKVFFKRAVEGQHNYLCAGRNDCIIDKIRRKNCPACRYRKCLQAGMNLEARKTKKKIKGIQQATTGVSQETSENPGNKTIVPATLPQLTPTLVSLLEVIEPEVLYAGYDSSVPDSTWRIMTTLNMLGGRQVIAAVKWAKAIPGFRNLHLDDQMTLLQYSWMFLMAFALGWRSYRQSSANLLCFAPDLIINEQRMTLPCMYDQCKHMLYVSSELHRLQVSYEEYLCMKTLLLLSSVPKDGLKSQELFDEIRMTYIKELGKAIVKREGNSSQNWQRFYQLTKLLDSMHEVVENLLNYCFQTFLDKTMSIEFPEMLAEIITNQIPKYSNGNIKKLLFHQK
- Assay: Glucocorticoid Receptor Binding Assay (I), fluorescence polarization competitor kit
- Run Parameters: purified human recombinant full-length GR, Fluormone GS Red, 2 h room temperature
Ki values for the compounds below.
Write the answer as a number in nM, unit excluded.

C[C@]12Cn3cnc(-c4ccc(F)cc4)c3C=C1CCC[C@@H]2[C@H](O)c1ccc(F)cc1 [Example 50]: 29.7
C[C@]12Cn3cnc(-c4ccc(F)cc4)c3C=C1CCC[C@@H]2CO [Example 4a]: 111
CC12Cn3cnc(-c4ccc(F)cc4)c3C=C1CCCC2(O)c1ccc(Cl)cc1 (racemic) [Example 103]: 216

query: Field request: Ki | item: CC[C@@](O)(c1ccccc1)[C@H]1CCCC2=Cc3c(-c4ccccc4)ncn3C[C@@]21C (racemic) [Example 36]
result: 8.71
